Target: transferrin receptor (TfR) on bEnd.3 cells (mouse)
Assay: flow cytometry (bEnd.3 cells)
Details: doxorubicin intercalated (non-covalent, about 2-3 per aptamer); Live-cell flow cytometry, 5e5 cells, 0-400 nM aptamer, PBS with 10% FCS, 0.1 mg/mL tRNA, 0.1 mg/mL BSA, 60 min, 37 C; aptamer folded in PBS with 5 mM MgCl2
parameter: pKd
Entry type: numeric. Quantity: pKd, the -log10 of concentration in molar units.

> print(dat)
                             sequence.input  assay.result
1  GCGCGGTACCGCGCTAACGGAGGTTGCGTCCGT [TEPP-DOX]          6.92

Shifting focus to the sequence that follows.
Task item: Find the recorded pKd belonging to GCGCGTGCACGCGCTAACGGATTCCTTTTCCGT [TENN-DOX] and report it.
Reply: 6.06
